Tested on: Danio rerio embryo/larva
Assay: max % larvae with abnormal position across tested concentrations; higher = more toxic; extreme values may be limits of the assay
Details: exposure: 6-8 hpf to 5 dpf, scored at 6 dpf
The following molecules are shown together with reported max % larvae values.
Respond with the bare value in %.

Consider the following illustrative entries.
O=C(O)C(F)(F)C(F)(F)C(F)(F)OC(F)(F)F [Perfluoro(4-methoxybutanoic acid)] (max tested concentration (log10 uM): 2) | 0
O=C(O)C(F)(F)C(F)(F)C(F)(F)C(F)(F)C(F)(F)C(F)(F)C(F)(F)C(F)(F)C(F)(F)C(F)F [11-H-Perfluoroundecanoic acid] (max tested concentration (log10 uM): 1.47712) | 50
O=C(O)C(F)(F)C(F)(F)C(F)(F)C(F)(F)F [Perfluoropentanoic acid] (max tested concentration (log10 uM): 2) | 4.17

What does the data say about its max % larvae? Entry: O=C(O)C(F)(F)OC(F)(F)C(F)(F)OC(F)(F)C(=O)O [Perfluoro-3,6-dioxaoctane-1,8-dioic acid] (max tested concentration (log10 uM): 2)
0

What does the data say about its max % larvae? Entry: O=S(=O)(O)C(F)(F)C(F)(F)C(F)(F)C(F)(F)C(F)(F)C(F)(F)F [Perfluorohexanesulfonic acid] (max tested concentration (log10 uM): 2)
31.2

---

Test system: Danio rerio embryo/larva
Experiment: max % larvae with abnormal position across tested concentrations; higher = more toxic; extreme values may be limits of the assay
Details: exposure: 6-8 hpf to 5 dpf, scored at 6 dpf
measure: max % larvae (%)
Respond with the bare value in %.

Consider the following illustrative entries.
OCC(F)(F)C(F)(F)C(F)(F)C(F)(F)C(F)(F)C(F)(F)C(F)(F)C(F)(F)CO [1H,1H,10H,10H-Perfluorodecane-1,10-diol] (max tested concentration (log10 uM): 1) | 4.17
FC(F)(F)C(F)(F)C(F)(F)C(F)(F)C(F)(F)C(F)(F)I [Perfluoro-1-iodohexane] (max tested concentration (log10 uM): 2) | 0
O=C(O)C(F)(F)C(F)(F)F [Perfluoropropanoic acid] (max tested concentration (log10 uM): 2) | 0

What does the data say about its max % larvae? Entry: NC(=O)C(F)(F)C(F)(F)F [Pentafluoropropionamide] (max tested concentration (log10 uM): 2)
0

What does the data say about its max % larvae? Entry: FC(F)(I)C(F)(F)C(F)(F)C(F)(F)C(F)(F)C(F)(F)I [1,6-Diiodoperfluorohexane] (max tested concentration (log10 uM): 2)
54.6

What does the data say about its max % larvae? Entry: O=C(Cl)C(F)(F)C(F)(F)C(F)(F)C(F)(F)C(F)(F)C(F)(F)C(F)(F)C(F)(F)F [Perfluorononanoyl chloride] (max tested concentration (log10 uM): 1.47712)
4.17

What does the data say about its max % larvae? Entry: C=CC(=O)OCCC(F)(F)C(F)(F)C(F)(F)C(F)(F)C(F)(F)C(F)(F)C(F)(F)C(F)(F)F [2-(Perfluorooctyl)ethyl acrylate] (max tested concentration (log10 uM): 2)
0

What does the data say about its max % larvae? Entry: O=S(=O)(O)C(F)(F)C(F)(F)C(F)(F)C(F)(F)C(F)(F)C(F)(F)F [Potassium perfluorohexanesulfonate] (max tested concentration (log10 uM): 2)
19.4

---

Tested on: Danio rerio embryo/larva
Assay: max % larvae with blood pooling across tested concentrations; higher = more toxic; extreme values may be limits of the assay
Conditions: exposure: 6-8 hpf to 5 dpf, scored at 6 dpf
measure: max % larvae (%)
Respond with the bare value in %.

Consider the following illustrative entries.
O=P(O)(O)CCC(F)(F)C(F)(F)C(F)(F)C(F)(F)C(F)(F)C(F)(F)F [2-(Perfluorohexyl)ethylphosphonic acid] (max tested concentration (log10 uM): 2) | 0
O=C(O)CCC(F)(F)C(F)(F)C(F)(F)C(F)(F)C(F)(F)F [2H,2H,3H,3H-Perfluorooctanoic acid] (max tested concentration (log10 uM): 1.47712) | 100

Next:
What does the data say about its max % larvae? Entry: C=C(C)C(=O)OCCC(F)(F)C(F)(F)C(F)(F)C(F)(F)C(F)(F)C(F)(F)F [2-(Perfluorohexyl)ethyl methacrylate] (max tested concentration (log10 uM): 2)
0

---

Tested on: Danio rerio embryo/larva
Test: max % larvae with any abnormality across tested concentrations; max tested concentration (log10 uM): 2; higher = more toxic; extreme values may be limits of the assay
Details: exposure: 6-8 hpf to 5 dpf, scored at 6 dpf
measure: max % larvae (%)
Respond with the bare value in %.

C=C(C)C(=O)OCC(F)(F)C(F)(F)C(F)(F)C(F)F [1H,1H,5H-Perfluoropentyl methacrylate] | 66.7

What does the data say about its max % larvae? Entry: O=C(O)C(F)(F)C(F)(F)C(F)(F)C(F)(F)C(F)(F)C(F)(F)C(F)(F)C(F)F [9H-Perfluorononanoic acid]
18.8

What does the data say about its max % larvae? Entry: COC(=O)C(F)(F)C(F)(F)C(F)(F)C(F)(F)C(F)(F)F [Methyl perfluorohexanoate]
0

What does the data say about its max % larvae? Entry: OCC(F)(F)C(F)(F)C(F)(F)CO [Hexafluoroamylene glycol]
0

What does the data say about its max % larvae? Entry: Cc1ccc(S(=O)(=O)OCC(F)(F)C(F)(F)C(F)(F)C(F)(F)C(F)(F)C(F)F)cc1 [1H,1H,7H-Perfluoroheptyl 4-methylbenzenesulfonate]
75

What does the data say about its max % larvae? Entry: O=S(=O)(Cl)C(F)(F)C(F)(F)C(F)(F)C(F)(F)C(F)(F)C(F)(F)C(F)(F)C(F)(F)F [Perfluoro-1-octanesulfonyl chloride]
100

What does the data say about its max % larvae? Entry: FC(F)C(F)(F)COCC1CO1 (configuration not stated) [((2,2,3,3-Tetrafluoropropoxy)methyl)oxirane]
91.7

---

Test system: Danio rerio embryo/larva
Assay: max % larvae generally abnormal across tested concentrations; higher = more toxic; extreme values may be limits of the assay
Conditions: exposure: 6-8 hpf to 5 dpf, scored at 6 dpf
The following compounds are shown together with reported max % larvae generally abnormal across tested concentrations values.
Respond with the bare value in %.

Consider the following illustrative entries.
O=C(O)C(F)(F)C(F)(F)C(F)(F)C(F)(F)C(F)(F)C(F)(F)F [Perfluoroheptanoic acid] (max tested concentration (log10 uM): 2) | 8.33
O=C(CC(=O)C(F)(F)F)C(F)(F)F [1,1,1,5,5,5-Hexafluoro-2,4-pentanedione] (max tested concentration (log10 uM): 2) | 0
O=C(Cl)C(F)(F)C(F)(F)C(F)(F)C(F)(F)C(F)(F)C(F)(F)C(F)(F)F [Pentadecafluorooctanoyl chloride] (max tested concentration (log10 uM): 2) | 16.7
O=C(Cl)C(F)(F)C(F)(F)C(F)(F)C(F)(F)C(F)(F)C(F)(F)C(F)(F)C(F)(F)F [Perfluorononanoyl chloride] (max tested concentration (log10 uM): 1.47712) | 29.2

What does the data say about its max % larvae generally abnormal across tested concentrations? Entry: O=C(O)C(F)(F)OC(F)(F)C(F)(F)OC(F)(F)F [Perfluoro-3,6-dioxaheptanoic acid] (max tested concentration (log10 uM): 2)
4.17

What does the data say about its max % larvae generally abnormal across tested concentrations? Entry: O=C(O)C(F)(F)C(F)(F)C(F)(F)OC(F)(F)F [Perfluoro(4-methoxybutanoic acid)] (max tested concentration (log10 uM): 2)
0

What does the data say about its max % larvae generally abnormal across tested concentrations? Entry: FC(F)(I)C(F)(F)C(F)(F)C(F)(F)C(F)(F)C(F)(F)I [1,6-Diiodoperfluorohexane] (max tested concentration (log10 uM): 2)
95

What does the data say about its max % larvae generally abnormal across tested concentrations? Entry: NCC(F)(F)C(F)(F)C(F)(F)C(F)(F)C(F)(F)C(F)(F)C(F)(F)C(F)(F)F [1H,1H-Perfluorononylamine] (max tested concentration (log10 uM): 1.60206)
75

What does the data say about its max % larvae generally abnormal across tested concentrations? Entry: O=C(O)C(F)(F)C(F)(F)C(F)(F)C(F)(F)C(F)(F)C(F)(F)C(F)(F)F [Perfluorooctanoic acid] (max tested concentration (log10 uM): 2)
16.7

---

Tested on: Danio rerio embryo/larva
Assay: max % larvae with abnormal position across tested concentrations; higher = more toxic; extreme values may be limits of the assay
Settings: exposure: 6-8 hpf to 5 dpf, scored at 6 dpf
measure: max % larvae (%)
Respond with the bare value in %.

O=C(O)C(F)(F)C(F)(F)C(=O)O [Perfluorobutanedioic acid] (max tested concentration (log10 uM): 2) | 4.17
CCOC(=O)CC(=O)C(F)(F)C(F)(F)F [Ethyl pentafluoropropionyl acetate] (max tested concentration (log10 uM): 2) | 0
O=C(O)C(F)(F)OC(F)(F)C(F)(F)OC(F)(F)C(F)(F)OC(F)(F)F [Perfluoro-3,6,9-trioxadecanoic acid] (max tested concentration (log10 uM): 2) | 25

Next:
What does the data say about its max % larvae? Entry: OC(C(F)(F)F)(C(F)(F)F)C(O)(C(F)(F)F)C(F)(F)F [Perfluoropinacol] (max tested concentration (log10 uM): 0.477121)
0

---

System: Danio rerio embryo/larva
Test: max % larvae generally abnormal across tested concentrations; higher = more toxic; extreme values may be limits of the assay
Settings: exposure: 6-8 hpf to 5 dpf, scored at 6 dpf
measure: max % larvae generally abnormal across tested concentrations (%)
Respond with the bare value in %.

Consider the following illustrative entries.
O=C(O)CCC(F)(C(F)(F)F)C(F)(F)F [4,4-bis(Trifluoromethyl)-4-fluoropropanoic acid] (max tested concentration (log10 uM): 2) | 0
NC(=O)C(F)(F)C(F)(F)C(F)(F)C(F)F [Perfluoropentanamide] (max tested concentration (log10 uM): 2) | 0

Next:
What does the data say about its max % larvae generally abnormal across tested concentrations? Entry: O=C(CC(=O)C(F)(F)C(F)(F)C(F)(F)F)c1cccs1 [(Perfluorobutyryl)-2-thenoylmethane] (max tested concentration (log10 uM): 0.477121)
8.33
